Data credit: paper PMC9120017

SYSTEM_NAME: mouse TMEM16A mutant R515A (Mus musculus, UniProt Q8BHY3, R515A)
Construct: expressed in transfected cells; host or cells: HEK293T
ASSAY_NAME: Inside-out patch recording of 1PBC block, mutant R515A
Type: cell-based
STATED_CONDITIONS: R515A; V 40 mV
Method: HEK293T cells (ATCC CRL-1573) were maintained in Dulbecco’s modified Eagle’s medium (DMEM; Sigma-Aldrich) supplemented with 10 U ml^−1 penicillin, 0.1 mg ml^−1 streptomycin (Sigma-Aldrich), 2 mM L-glutamine (Sigma-Aldrich), and 10% FBS (Sigma-Aldrich) in a humidified atmosphere containing 5% CO2 at 37 °C. […]
QUANTITY: IC50 (µM)

>>> print(df.to_string())
                       chemical_string  val
0  N#Cc1c(C(F)(F)F)cc(O)n2c1nc1ccccc12  102

----------
SYSTEM_NAME: mouse TMEM16A mutant R515A (Mus musculus, UniProt Q8BHY3, R515A)
Construct: expressed in transfected cells; host or cells: HEK293T
ASSAY_NAME: Inside-out patch recording of 1PBC block, mutant R515A
Type: cell-based
STATED_CONDITIONS: 0 mV; 4 µM Ca2+
QUANTITY: IC50

>>> df
                       chemical_string     val
0  N#Cc1c(C(F)(F)F)cc(O)n2c1nc1ccccc12  120 µM

----------
SYSTEM_NAME: mouse TMEM16A mutant V511A (Mus musculus, UniProt Q8BHY3, V511A)
Construct: expressed in transfected cells; host or cells: HEK293T
ASSAY_NAME: Inside-out patch recording of 1PBC block, mutant V511A
Format: cell-based
STATED_CONDITIONS: V511A; V 20 mV
pIC50: −log10 of the molar value.
QUANTITY: pIC50

                       chemical_string  quantity   val
0  N#Cc1c(C(F)(F)F)cc(O)n2c1nc1ccccc12     pIC50  4.78

----------
SYSTEM_NAME: mouse TMEM16A mutant T518A (Mus musculus, UniProt Q8BHY3, T518A)
Construct: expressed in transfected cells; host or cells: HEK293T
Sequence (Q8BHY3 1-960 T518A): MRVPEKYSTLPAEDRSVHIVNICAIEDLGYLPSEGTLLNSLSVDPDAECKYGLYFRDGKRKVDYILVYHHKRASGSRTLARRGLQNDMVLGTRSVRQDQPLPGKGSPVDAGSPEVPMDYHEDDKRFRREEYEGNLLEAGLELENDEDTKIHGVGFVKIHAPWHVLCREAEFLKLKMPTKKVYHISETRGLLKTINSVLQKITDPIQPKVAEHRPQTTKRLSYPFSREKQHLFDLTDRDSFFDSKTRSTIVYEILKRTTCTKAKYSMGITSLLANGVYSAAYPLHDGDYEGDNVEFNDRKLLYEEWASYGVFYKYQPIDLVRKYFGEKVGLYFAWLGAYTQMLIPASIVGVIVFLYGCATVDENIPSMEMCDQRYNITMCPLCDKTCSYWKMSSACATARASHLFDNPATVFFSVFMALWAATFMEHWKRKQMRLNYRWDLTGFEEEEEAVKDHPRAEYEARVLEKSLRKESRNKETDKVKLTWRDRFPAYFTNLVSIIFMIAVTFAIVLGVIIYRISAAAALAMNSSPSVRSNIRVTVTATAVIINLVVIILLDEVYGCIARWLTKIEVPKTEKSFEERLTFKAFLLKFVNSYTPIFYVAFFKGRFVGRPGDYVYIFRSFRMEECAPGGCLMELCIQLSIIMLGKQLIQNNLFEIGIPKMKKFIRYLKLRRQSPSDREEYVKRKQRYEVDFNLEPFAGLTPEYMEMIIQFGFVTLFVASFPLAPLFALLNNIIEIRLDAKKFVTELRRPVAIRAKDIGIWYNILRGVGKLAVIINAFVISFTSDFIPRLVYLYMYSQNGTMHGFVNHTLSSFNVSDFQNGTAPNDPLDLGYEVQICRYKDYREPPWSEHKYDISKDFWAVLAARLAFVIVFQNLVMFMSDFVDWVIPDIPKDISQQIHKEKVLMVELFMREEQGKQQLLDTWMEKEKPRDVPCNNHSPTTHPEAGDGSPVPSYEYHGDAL
ASSAY_NAME: Inside-out patch recording of 1PBC block, mutant T518A
Type: cell-based
STATED_CONDITIONS: T518A; V 80 mV
pIC50: −log10 of the molar value.
QUANTITY: pIC50

>>> df
                                   molecule                               system_name   val
0  N#Cc1c(C(F)(F)F)cc(O)n2c1nc1ccccc12 [1PBC]  mouse TMEM16A mutant T518A (Mus musculus, UniProt Q8BHY3, T518A)  5.57

----------
SYSTEM_NAME: mouse TMEM16A mutant S517A (Mus musculus, UniProt Q8BHY3, S517A)
Construct: expressed in transfected cells; host or cells: HEK293T
ASSAY_NAME: Inside-out patch recording of 1PBC block, mutant S517A
Type: cell-based
STATED_CONDITIONS: 100 mV; 2 µM Ca2+
pIC50: −log10 of the molar value.
QUANTITY: pIC50

In [3]: df
Out[3]:
                       chemical_string   val
0  N#Cc1c(C(F)(F)F)cc(O)n2c1nc1ccccc12  5.67

----------
SYSTEM_NAME: mouse TMEM16A mutant I512A (Mus musculus, UniProt Q8BHY3, I512A)
Construct: expressed in transfected cells; host or cells: HEK293T
ASSAY_NAME: Inside-out patch recording of 1PBC block, mutant I512A
Type: cell-based
STATED_CONDITIONS: 120 mV; 2 µM Ca2+
pIC50: −log10 of the molar value.
QUANTITY: pIC50

>>> print(df.to_string())
                       chemical_string                               system_name   val
0  N#Cc1c(C(F)(F)F)cc(O)n2c1nc1ccccc12  mouse TMEM16A mutant I512A (Mus musculus, UniProt Q8BHY3, I512A)  4.80

----------
SYSTEM_NAME: mouse TMEM16A mutant N546A (Mus musculus, UniProt Q8BHY3, N546A)
Construct: expressed in transfected cells; host or cells: HEK293T
ASSAY_NAME: Inside-out patch recording of 1PBC block, mutant N546A
Type: cell-based
STATED_CONDITIONS: 0 mV; 2 µM Ca2+
QUANTITY: IC50 (µM)

In [3]: df
Out[3]:
                                   molecule  output_unit    val
0  N#Cc1c(C(F)(F)F)cc(O)n2c1nc1ccccc12 [1PBC]           µM  0.594

----------
SYSTEM_NAME: mouse TMEM16A mutant R535A (Mus musculus, UniProt Q8BHY3, R535A)
Construct: expressed in transfected cells; host or cells: HEK293T
Sequence (Q8BHY3 1-960 R535A): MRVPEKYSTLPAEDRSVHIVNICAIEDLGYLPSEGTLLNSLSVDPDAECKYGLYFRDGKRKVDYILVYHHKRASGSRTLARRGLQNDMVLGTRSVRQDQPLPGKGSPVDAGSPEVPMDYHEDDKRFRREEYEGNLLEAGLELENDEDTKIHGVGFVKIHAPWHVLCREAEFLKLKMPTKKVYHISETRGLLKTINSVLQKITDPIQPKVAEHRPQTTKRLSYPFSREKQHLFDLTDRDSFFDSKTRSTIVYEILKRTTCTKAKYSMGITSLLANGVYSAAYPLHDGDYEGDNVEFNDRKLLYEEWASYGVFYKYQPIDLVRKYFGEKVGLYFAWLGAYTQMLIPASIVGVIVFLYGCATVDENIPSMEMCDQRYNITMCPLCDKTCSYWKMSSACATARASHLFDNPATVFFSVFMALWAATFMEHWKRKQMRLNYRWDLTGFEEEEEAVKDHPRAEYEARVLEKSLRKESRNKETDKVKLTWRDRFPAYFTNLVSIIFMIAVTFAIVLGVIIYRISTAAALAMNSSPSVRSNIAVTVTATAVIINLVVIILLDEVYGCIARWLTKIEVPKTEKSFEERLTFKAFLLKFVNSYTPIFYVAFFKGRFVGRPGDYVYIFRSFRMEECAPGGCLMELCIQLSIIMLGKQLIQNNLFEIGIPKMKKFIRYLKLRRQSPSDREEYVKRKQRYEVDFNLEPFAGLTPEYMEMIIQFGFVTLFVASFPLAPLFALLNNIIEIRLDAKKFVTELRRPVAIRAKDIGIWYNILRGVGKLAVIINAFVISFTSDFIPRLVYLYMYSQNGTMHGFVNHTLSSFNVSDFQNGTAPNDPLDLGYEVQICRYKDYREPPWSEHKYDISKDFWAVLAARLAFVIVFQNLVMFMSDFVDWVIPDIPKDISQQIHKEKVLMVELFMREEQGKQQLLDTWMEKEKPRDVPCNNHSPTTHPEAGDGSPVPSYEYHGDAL
ASSAY_NAME: Inside-out patch recording of 1PBC block, mutant R535A
Type: cell-based
STATED_CONDITIONS: R535A; V 140 mV
Procedure: HEK293T cells (ATCC CRL-1573) were maintained in Dulbecco’s modified Eagle’s medium (DMEM; Sigma-Aldrich) supplemented with 10 U ml^−1 penicillin, 0.1 mg ml^−1 streptomycin (Sigma-Aldrich), 2 mM L-glutamine (Sigma-Aldrich), and 10% FBS (Sigma-Aldrich) in a humidified atmosphere containing 5% CO2 at 37 °C. […]
pIC50: −log10 of the molar value.
QUANTITY: pIC50

>>> df
                                   molecule   val
0  N#Cc1c(C(F)(F)F)cc(O)n2c1nc1ccccc12 [1PBC]  5.24
